Listed next: entries and their corresponding pIC50.
measurement.target: IRAK4 enzyme (Homo sapiens (Human))
Sequence (Q9NWZ3 whole entry): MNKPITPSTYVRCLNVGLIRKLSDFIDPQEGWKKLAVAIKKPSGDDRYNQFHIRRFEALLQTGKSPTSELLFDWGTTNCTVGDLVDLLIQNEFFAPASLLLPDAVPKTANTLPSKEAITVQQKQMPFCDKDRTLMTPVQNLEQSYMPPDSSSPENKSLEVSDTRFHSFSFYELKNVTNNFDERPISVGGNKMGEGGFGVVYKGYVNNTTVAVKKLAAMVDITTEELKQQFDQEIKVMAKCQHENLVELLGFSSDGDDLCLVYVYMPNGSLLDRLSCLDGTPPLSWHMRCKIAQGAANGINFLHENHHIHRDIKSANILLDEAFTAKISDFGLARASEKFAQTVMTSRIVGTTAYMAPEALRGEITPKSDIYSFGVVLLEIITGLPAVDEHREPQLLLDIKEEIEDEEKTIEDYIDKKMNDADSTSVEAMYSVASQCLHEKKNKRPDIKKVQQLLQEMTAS
test.method.notes: IRAK4 Biochemical Assay (TR-FRET, STK1 KinEASE)
pIC50: −log10 of the molar value.
observable: pIC50

[[record]]
compound = "CC(C)Nc1cc(-c2ccc3cc(C#N)cnn23)ncc1-c1nnc(N2C[C@@H]3C[C@H]2CO3)s1"
measurement_target = "IRAK4 enzyme (Homo sapiens (Human))"
observable = "pIC50"
measured_number = 9.34

[[record]]
compound = "CNC(=O)C1CCN(c2nnc(-c3cnc(-c4ccc5cc(C#N)cnn45)cc3NC(C)C)s2)CC1"
measurement_target = "IRAK4 enzyme (Homo sapiens (Human))"
observable = "pIC50"
measured_number = 8.99

[[record]]
compound = "CC(=O)N1CCN(c2nnc(-c3cnc(-c4ccc5cc(C#N)cnn45)cc3NC(C)C)s2)C2CC21 (stereo not shown)"
measurement_target = "IRAK4 enzyme (Homo sapiens (Human))"
observable = "pIC50"
measured_number = 9.19

[[record]]
compound = "CC(=O)N[C@@H]1CCN(c2nnc(-c3cnc(-c4ccc5cc(C#N)cnn45)cc3N[C@H](C)C#N)s2)CC1(F)F"
measurement_target = "IRAK4 enzyme (Homo sapiens (Human))"
observable = "pIC50"
measured_number = 8.99

